# pIC50 listing for each entry below
# experimental.system: Cytochrome P450 2C8 (Homo sapiens)
# Sequence (P10632 whole entry): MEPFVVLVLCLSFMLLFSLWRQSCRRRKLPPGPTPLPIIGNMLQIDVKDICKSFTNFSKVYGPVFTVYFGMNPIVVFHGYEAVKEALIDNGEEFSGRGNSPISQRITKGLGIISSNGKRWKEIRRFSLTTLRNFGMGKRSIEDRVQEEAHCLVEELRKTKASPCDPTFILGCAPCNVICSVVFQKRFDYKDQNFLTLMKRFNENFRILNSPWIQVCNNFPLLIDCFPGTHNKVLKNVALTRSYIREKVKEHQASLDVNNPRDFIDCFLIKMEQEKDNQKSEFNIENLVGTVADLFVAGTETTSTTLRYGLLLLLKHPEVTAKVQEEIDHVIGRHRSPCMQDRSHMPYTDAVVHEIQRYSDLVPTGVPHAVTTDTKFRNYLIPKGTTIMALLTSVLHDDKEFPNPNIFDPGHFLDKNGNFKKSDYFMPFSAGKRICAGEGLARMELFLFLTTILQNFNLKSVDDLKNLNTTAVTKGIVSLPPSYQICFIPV
pIC50: −log10 of the molar value.

1) CC#C[C@]1(O)CC[C@H]2[C@@H]3CCC4=CC(=O)CCC4=C3[C@@H](c3ccc(N(C)C)cc3)C[C@@]21C | 5.82
2) CN(C)c1ccc([C@H]2C[C@@]3(C)[C@@H](CC[C@@]3(O)C#CC(C)(C)C)[C@@H]3CCC4=CC(=O)CCC4=C32)cc1 | < 5.00

Shifting focus to the compound that follows.
What value of measured pIC50 is listed for CC(C)N(C)c1ccc([C@H]2C[C@@]3(C)[C@@H](CC[C@@]3(O)C#CC(C)(C)C)[C@@H]3CCC4=CC(=O)CC[C@@H]4[C@H]32)cc1 ? < 5.00

* * *

# pEC50 listing for each entry below
# experimental.system: Androgen receptor (Homo sapiens, UniProt P10275)
# Sequence (P10275 whole entry): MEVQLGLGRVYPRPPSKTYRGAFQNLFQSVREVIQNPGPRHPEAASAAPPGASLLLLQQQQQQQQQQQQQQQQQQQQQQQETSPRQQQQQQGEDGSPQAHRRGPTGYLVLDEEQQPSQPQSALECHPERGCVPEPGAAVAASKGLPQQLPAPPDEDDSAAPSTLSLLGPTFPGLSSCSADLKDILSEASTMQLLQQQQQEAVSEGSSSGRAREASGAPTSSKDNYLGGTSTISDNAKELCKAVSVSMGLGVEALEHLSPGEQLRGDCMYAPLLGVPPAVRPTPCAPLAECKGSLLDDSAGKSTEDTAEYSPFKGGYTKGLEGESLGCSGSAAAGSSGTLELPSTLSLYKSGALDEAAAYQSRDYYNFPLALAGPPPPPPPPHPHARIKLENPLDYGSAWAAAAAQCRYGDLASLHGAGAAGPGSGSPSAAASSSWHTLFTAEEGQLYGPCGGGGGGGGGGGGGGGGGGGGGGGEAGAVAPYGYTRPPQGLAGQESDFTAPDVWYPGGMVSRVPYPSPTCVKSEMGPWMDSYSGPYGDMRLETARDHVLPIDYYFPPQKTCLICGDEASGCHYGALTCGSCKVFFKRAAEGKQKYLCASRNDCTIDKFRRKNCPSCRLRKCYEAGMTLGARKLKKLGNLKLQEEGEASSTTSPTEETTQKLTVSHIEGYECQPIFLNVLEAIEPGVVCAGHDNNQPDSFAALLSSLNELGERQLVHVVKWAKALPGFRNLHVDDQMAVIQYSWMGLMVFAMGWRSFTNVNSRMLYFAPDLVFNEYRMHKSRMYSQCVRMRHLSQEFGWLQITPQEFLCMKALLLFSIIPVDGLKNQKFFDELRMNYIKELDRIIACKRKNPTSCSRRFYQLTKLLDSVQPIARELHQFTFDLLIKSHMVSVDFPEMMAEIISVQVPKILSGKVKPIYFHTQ
# experimental.details: Agonist activity at AR (unknown origin) expressed in human LNCaP cells incubated for 20 hrs by luciferase reporter gene assay
pEC50: −log10 of the molar value.

What value of measured pEC50 is listed for CC#C[C@]1(O)CC[C@H]2[C@@H]3CCC4=CC(=O)CCC4=C3[C@@H](c3ccccc3)C[C@@]21C ? < 5.60

What value of measured pEC50 is listed for CC(C)(C)C#C[C@]1(O)CC[C@H]2[C@@H]3CCC4=CC(=O)CCC4=C3[C@@H](c3ccc(N4CCS(=O)(=O)CC4)cc3)C[C@@]21C ? < 5.60

What value of measured pEC50 is listed for CCc1ccc([C@H]2C[C@@]3(C)[C@@H](CC[C@@]3(O)C#CC(C)(C)C)[C@@H]3CCC4=CC(=O)CCC4=C32)cc1 ? < 5.60

What value of measured pEC50 is listed for CC#C[C@]1(O)CC[C@H]2[C@@H]3CCC4=CC(=O)CCC4=C3[C@@H](c3cccc(N(C)C)c3)C[C@@]21C ? < 5.60

What value of measured pEC50 is listed for CN(C)c1ccc([C@H]2C[C@@]3(C)[C@@H](CC[C@@]3(O)C#CC(C)(C)C)[C@@H]3CCC4=CC(=O)CCC4=C32)cc1 ? < 5.60

What value of measured pEC50 is listed for CN(C)c1c(F)cc([C@H]2C[C@@]3(C)[C@@H](CC[C@@]3(O)C#CC(C)(C)C)[C@@H]3CCC4=CC(=O)CCC4=C32)cc1F ? < 5.60

* * *

# experimental.details: Half life in rat at 0.5 mg/kg, iv
# Assay type: ADME, organism-based
# condition.notes: in vivo
outcome.measure: half-life (min)
Express it in min; write the number only.

1. CCc1ccc([C@H]2C[C@@]3(C)[C@@H](CC[C@@]3(O)C#CC(C)(C)C)[C@@H]3CCC4=CC(=O)CCC4=C32)cc1 | 204

What value of measured half-life is listed for CC(C)N(C)c1ccc([C@H]2C[C@@]3(C)[C@@H](CC[C@@]3(O)C#CC(C)(C)C)[C@@H]3CCC4=CC(=O)CCC4=C32)cc1 ? 90

What value of measured half-life is listed for CC(C)N(C)c1ccc([C@H]2C[C@@]3(C)[C@@H](CC[C@@]3(O)C#CC(C)(C)C)[C@@H]3CCC4=CC(=O)CC[C@@H]4[C@H]32)cc1 ? 264

* * *

# experimental.system: UniProt P04150
# experimental.details: Agonist activity at human GR expressed in CHO-K1 cells incubated for 20 hrs by luciferase reporter gene assay
pEC50: −log10 of the molar value.
outcome.measure: pEC50

1) CN(C)c1c(F)cc([C@H]2C[C@@]3(C)[C@@H](CC[C@@]3(O)C#CC(C)(C)C)[C@@H]3CCC4=CC(=O)CCC4=C32)cc1F | < 5.60
2) CC(C)N(C)c1ccc([C@H]2C[C@@]3(C)[C@@H](CC[C@@]3(O)C#CC(C)(C)C)[C@@H]3CCC4=CC(=O)CC[C@@H]4[C@H]32)cc1 | < 5.60

Value wanted: pEC50 (UniProt P04150) of entry COC(C)(C)C#C[C@]1(O)CC[C@H]2[C@@H]3CCC4=CC(=O)CC[C@@H]4[C@H]3[C@@H](c3ccc(N(C)C)cc3)C[C@@]21C < 5.60

Value wanted: pEC50 (UniProt P04150) of entry CN(C)c1cccc([C@H]2C[C@@]3(C)[C@@H](CC[C@@]3(O)C#CC(C)(C)C)[C@@H]3CCC4=CC(=O)CCC4=C32)c1 < 5.60

Value wanted: pEC50 (UniProt P04150) of entry CC#C[C@]1(O)CC[C@H]2[C@@H]3CCC4=CC(=O)CCC4=C3[C@@H](c3ccccc3)C[C@@]21C 7.76

Value wanted: pEC50 (UniProt P04150) of entry CC#C[C@]1(O)CC[C@H]2[C@@H]3CCC4=CC(=O)CCC4=C3[C@@H](c3cccc(N(C)C)c3)C[C@@]21C < 5.60

* * *

# experimental.system: Glucocorticoid receptor (Homo sapiens, UniProt P04150)
# Sequence (P04150 whole entry): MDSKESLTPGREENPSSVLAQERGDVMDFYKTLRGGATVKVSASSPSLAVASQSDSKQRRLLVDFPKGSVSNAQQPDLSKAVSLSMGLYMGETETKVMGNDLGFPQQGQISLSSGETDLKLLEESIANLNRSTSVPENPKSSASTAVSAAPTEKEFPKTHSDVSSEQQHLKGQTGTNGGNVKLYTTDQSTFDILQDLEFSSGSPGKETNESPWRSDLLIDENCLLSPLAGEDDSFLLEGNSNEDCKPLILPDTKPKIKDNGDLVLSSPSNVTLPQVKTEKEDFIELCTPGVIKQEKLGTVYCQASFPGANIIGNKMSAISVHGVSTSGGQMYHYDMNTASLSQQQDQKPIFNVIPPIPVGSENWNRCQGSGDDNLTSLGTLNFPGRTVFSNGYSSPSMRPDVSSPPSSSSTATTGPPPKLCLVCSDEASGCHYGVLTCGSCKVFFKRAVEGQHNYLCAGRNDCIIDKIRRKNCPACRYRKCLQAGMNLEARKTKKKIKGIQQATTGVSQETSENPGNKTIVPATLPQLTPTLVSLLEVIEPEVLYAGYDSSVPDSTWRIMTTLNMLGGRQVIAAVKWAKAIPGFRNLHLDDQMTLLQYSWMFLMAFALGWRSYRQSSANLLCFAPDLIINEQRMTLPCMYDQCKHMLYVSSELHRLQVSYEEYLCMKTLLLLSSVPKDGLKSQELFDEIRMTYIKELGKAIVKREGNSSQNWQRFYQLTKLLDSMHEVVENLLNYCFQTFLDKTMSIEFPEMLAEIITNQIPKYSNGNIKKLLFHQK
# experimental.details: Antagonist activity at GR in human PBMC assessed as reduction in dexamethasone-induced GILZ gene expression incubated for 6 hrs by RT-qPCR method
# Format: cell-based
outcome.measure: pIC50
Interpret pIC50 as the negative base-10 log of the concentration measured in mol/L.

Value wanted: pIC50 (Glucocorticoid receptor (Homo sapiens, UniProt P04150)) of entry CC(C)N(C)c1ccc([C@H]2C[C@@]3(C)[C@@H](CC[C@@]3(O)C#CC(C)(C)C)[C@@H]3CCC4=CC(=O)CC[C@@H]4[C@H]32)cc1 7.60

* * *

# experimental.details: Oral bioavailability in mini pig at 10 mg/kg
# Assay type: ADME, organism-based, Sus scrofa
# condition.notes: in vivo
outcome.measure: bioavailability (%)
Express it in %; write the number only.

What value of measured bioavailability is listed for CC(C)N(C)c1ccc([C@H]2C[C@@]3(C)[C@@H](CC[C@@]3(O)C#CC(C)(C)C)[C@@H]3CCC4=CC(=O)CC[C@@H]4[C@H]32)cc1 ? 20

* * *

# experimental.system: UniProt:P04150
# Sequence (P04150 whole entry): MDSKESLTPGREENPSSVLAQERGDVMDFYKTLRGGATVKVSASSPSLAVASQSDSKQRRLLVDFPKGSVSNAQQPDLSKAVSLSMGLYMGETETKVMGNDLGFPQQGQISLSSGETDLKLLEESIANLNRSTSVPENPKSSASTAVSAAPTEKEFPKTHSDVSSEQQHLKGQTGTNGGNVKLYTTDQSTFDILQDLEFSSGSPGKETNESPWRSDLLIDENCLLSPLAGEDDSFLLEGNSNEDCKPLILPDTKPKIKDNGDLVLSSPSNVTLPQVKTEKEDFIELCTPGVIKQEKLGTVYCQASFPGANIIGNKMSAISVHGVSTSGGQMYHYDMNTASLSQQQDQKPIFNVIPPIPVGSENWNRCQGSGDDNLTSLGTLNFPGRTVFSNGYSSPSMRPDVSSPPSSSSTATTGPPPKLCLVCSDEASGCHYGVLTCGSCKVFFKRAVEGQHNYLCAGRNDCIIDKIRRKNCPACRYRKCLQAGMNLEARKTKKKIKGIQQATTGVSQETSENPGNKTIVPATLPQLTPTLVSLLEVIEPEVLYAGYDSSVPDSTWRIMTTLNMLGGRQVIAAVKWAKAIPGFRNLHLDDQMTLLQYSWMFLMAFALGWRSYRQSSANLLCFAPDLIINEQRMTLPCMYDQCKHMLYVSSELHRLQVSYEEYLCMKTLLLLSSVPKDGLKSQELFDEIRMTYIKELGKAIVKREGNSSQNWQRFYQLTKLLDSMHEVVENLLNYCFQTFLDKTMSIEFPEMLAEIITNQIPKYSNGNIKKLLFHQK
# experimental.details: Antagonist activity at human GR expressed in CHO-K1 cells assessed as reduction in dexamethasone-induced response incubated for 20 hrs by luciferase reporter gene assay
# Type: cell-based
outcome.measure: pIC50
Interpret pIC50 as the negative base-10 log of the concentration measured in mol/L.

// solved cases for pIC50 follow
1) CC(C)(C)C#C[C@]1(O)CC[C@H]2[C@@H]3CCC4=CC(=O)CCC4=C3[C@@H](c3ccc(N4CCOCC4)cc3)C[C@@]21C | 7.88
2) Cc1ccc([C@H]2C[C@@]3(C)[C@@H](CC[C@@]3(O)C#CC(C)(C)C)[C@@H]3CCC4=CC(=O)CCC4=C32)cc1 | 7.79
3) CN(C)c1ccc([C@H]2C[C@@]3(C)[C@@H](CC[C@@]3(O)C#CC(C)(C)C)[C@@H]3CCC4=CC(=O)CC[C@@H]4[C@H]32)cc1 | 8.25

Shifting focus to the molecule that follows.
What value of measured pIC50 is listed for CC#C[C@]1(O)CC[C@H]2[C@@H]3CCC4=CC(=O)CCC4=C3[C@@H](c3ccccc3)C[C@@]21C ? 7.85

Data credit: ChEMBL document CHEMBL4145686
